settings: in 1,4-dioxane, 303.15 K
metric-name: solubility (mole fraction)
Form rule: numeric answer, no unit written next to it.

query: Entry `COc1ccc(CN2CCNCC2)c(OC)c1OC.Cl.Cl` has what solubility (mole fraction)?
result: 8.25e-05

====

details: in toluene, 288.15 K
metric-name: solubility (mole fraction)
Lab note: jot the number down without any unit.

query: Record request: solubility (mole fraction) value, item `COc1ccc(CN2CCNCC2)c(OC)c1OC.Cl.Cl`
result: 9.58e-07

====

settings: in acetone, 293.15 K
metric-name: solubility (mole fraction)
Could you respond with only the numeric value?

query: I have this compound here, `COc1ccc(CN2CCNCC2)c(OC)c1OC.Cl.Cl` , and I need its recorded solubility (mole fraction).
result: 8.16e-06
